# tested_target: T1, MYOF peptide complexed with HLA-A*02:01 on T2 cells (human)
# T1 construct: whole, on cells
# method_summary: flow cytometry, peptide-loaded T2 cells;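 note: binding of single-chain Fv antibody constructs, raised in XenoMouse, to peptide-pulsed T2 cells measured by flow cytometry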
observable: Signal/background
Enter a number only.

# binder 18081-B9 (scFv, scFv in bacterial lysate, detected with anti-Flag M2) scFv: EVQLLESGPGLVKPSETLSLTCTVSGDSISSSRYYWGWIRQPPGKGLEWIGSIYYSGSTYYNPSLKSRVTISVDTSKNQFSLKLSSVTAADTAVYYCARGIFGVITYFDYWGQGTLVTVSSGGGGSGGGGSGGGGSELVMTQSPDSLAVSLGERATINCKSSQSVLYSSNNKNYLAWYQQKPGQPPKLLIYWASTRESGVPDRFSGSGSGTDFTLTISSLQAEDVAVYYCQQFYSTPITFGQGTRLEIK ; its Signal/background = 1.1

# binder 18181-G10 (scFv, scFv in bacterial lysate, detected with anti-Flag M2) scFv: EVQLLESGPGLVKPSQTLSLTCTVSGDSISSNPYYWSWIRQLPGKGLEWIGYISYSGSTFYNPSLKSRVTISVDTSKNQFSLNLTSVTAADTAVYYCARDRLWFGVLNYYYGMDVWGLGTTVTVSSGGGGSGGGGSGGGGSELVMTQSPLSLPVTPGEPASISCRSSQSLLHSTGYNYVDWYLQKPGQSPQLLIYLGSNRASGVPDRFSGSGSGTDFTLKISRVEAEDVGFYYCMQALQTPRTFGQGTKVEIK ; its Signal/background = 1
